Measured Phage binding ELISA signal, Anti-PSMA Fab accompanies every entry in the list below.
target: T1, 006 PSMA Fab; test: phage ELISA; biotinylated PSMA Fab on neutravidin plate, blocking buffer alone, anti-M13-HRP detection
T1 construct: also called Anti-PSMA Fab

BINDER: SLPLCKPLWMCEGF (tested as crude clonal phage supernatant) [Phage-2887]
TEST VALUE: 2.36

BINDER: DGIKCVPRWMCDGF (tested as crude clonal phage supernatant) [Phage-2886]
TEST VALUE: 2.36

BINDER: MHLMCKPAWMCAGF (tested as crude clonal phage supernatant) [Phage-2880]
TEST VALUE: 2.38

BINDER: EAHICRPLWMCTGF (tested as crude clonal phage supernatant) [Phage-2891]
TEST VALUE: 2.36

BINDER: GDPVCKPTWMCLGF (tested as crude clonal phage supernatant) [Phage-2881]
TEST VALUE: 2.38

Ask: Which Phage binding ELISA signal, Anti-PSMA Fab is reported for this binder? MASLCVPSWMCTGF (tested as crude clonal phage supernatant) [Phage-2889]
Result: 2.36

Ask: Which Phage binding ELISA signal, Anti-PSMA Fab is reported for this binder? NPPYCVPAWMCAGF (tested as crude clonal phage supernatant) [Phage-2885]
Result: 2.37

Ask: Which Phage binding ELISA signal, Anti-PSMA Fab is reported for this binder? ESARCVPMWMCNGF (tested as crude clonal phage supernatant) [Phage-2878]
Result: 2.38

Ask: Which Phage binding ELISA signal, Anti-PSMA Fab is reported for this binder? WDAKCVPRWMCDGF (tested as crude clonal phage supernatant) [Phage-2883]
Result: 2.37

Ask: Which Phage binding ELISA signal, Anti-PSMA Fab is reported for this binder? EFMRCTPPWMCLGF (tested as crude clonal phage supernatant) [Phage-2884]
Result: 2.37

Ask: Which Phage binding ELISA signal, Anti-PSMA Fab is reported for this binder? QEVYCKPAWMCDGF (tested as crude clonal phage supernatant) [Phage-2890]
Result: 2.36

Ask: Which Phage binding ELISA signal, Anti-PSMA Fab is reported for this binder? PERMCIPSWMCEVL (tested as crude clonal phage supernatant) [Phage-2882]
Result: 2.38

Ask: Which Phage binding ELISA signal, Anti-PSMA Fab is reported for this binder? VSKVCKPAWMCEGL (tested as crude clonal phage supernatant) [Phage-2888]
Result: 2.36

Ask: Which Phage binding ELISA signal, Anti-PSMA Fab is reported for this binder? VTVICKPQWMCVGF (tested as crude clonal phage supernatant) [Phage-2879]
Result: 2.38
